Target: Gastrin/cholecystokinin type B receptor (Rattus norvegicus) (UniProt P30553)
Sequence (whole entry): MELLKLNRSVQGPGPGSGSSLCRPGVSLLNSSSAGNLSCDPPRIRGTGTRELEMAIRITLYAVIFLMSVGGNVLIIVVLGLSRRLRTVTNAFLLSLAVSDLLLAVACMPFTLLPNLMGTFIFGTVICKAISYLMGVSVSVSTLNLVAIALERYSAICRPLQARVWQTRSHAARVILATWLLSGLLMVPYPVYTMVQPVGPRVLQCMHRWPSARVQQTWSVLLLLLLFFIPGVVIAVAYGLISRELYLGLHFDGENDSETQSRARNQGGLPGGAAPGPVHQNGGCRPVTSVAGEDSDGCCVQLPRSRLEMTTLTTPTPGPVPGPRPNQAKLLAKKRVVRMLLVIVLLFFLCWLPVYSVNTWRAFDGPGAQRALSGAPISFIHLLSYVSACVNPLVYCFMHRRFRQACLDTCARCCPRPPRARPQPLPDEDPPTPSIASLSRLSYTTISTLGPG
Test: Antagonist activity against CCK2 receptor estimated from single shifts of pentagastrin concentration-effect curves in the isolated rat stomach; […]
Format: functional, tissue-based
Activity calls are given as the source filed them. No cut-off for these calls is given here.
observable: pA2

• O=C(O)c1cccc(NC(=O)c2[nH]c(-c3ccc4ccccc4c3)nc2CC2CCCCCC2)c1 = inactive
• O=C(O)c1cccc(NC(=O)c2[nH]c(C3CCCCCCCCCCC3)nc2CCC23CC4CC(CC(C4)C2)C3)c1 = inactive
• O=C(O)c1cccc(NC(=O)c2cc(-c3ccc4ccccc4c3)[nH]c2CC2CCCCCC2)c1 = inactive
• O=C(O)c1cccc(NC(=O)c2cc(-c3ccccc3)[nH]c2CCC23CC4CC(CC(C4)C2)C3)c1 = inactive
• Cc1ccccc1-c1nc(C(=O)Nc2cccc(C(=O)O)c2)c(CC23CC4CC(CC(C4)C2)C3)[nH]1 = inactive
• Cc1ccccc1-c1cc(C(=O)Nc2cccc(C(=O)O)c2)c(CCC23CC4CC(CC(C4)C2)C3)[nH]1 = inactive
• COc1ccc(NC(=O)c2[nH]c(-c3ccccc3C)nc2CCC23CC4CC(CC(C4)C2)C3)cc1C(=O)O = inactive
• Cc1ccccc1-c1nc(C(=O)Nc2cccc(CC(=O)O)c2)c(CCC23CC4CC(CC(C4)C2)C3)[nH]1 = inactive
